Cited source for all entries: the supplement of paper PMC9112550

tested on: Escherichia coli TOP10; test: shrunken log2 fold change of peptide-encoding DNA abundance (4.5 h post-induction vs induction); higher = less antimicrobial activity (less host growth inhibition); details: time post-induction: 4.5 h; library: site-saturation at positions 5, 18, 19, 20
Record Satisfied whenever shrunken log2 fold change is at -0.3 or higher; record Not satisfied when lower.

# example entries with known answers
RRIRNRPPRLPRPRPRPSKTPRP ... Not satisfied
RRIRQRPPRLPRPRPRPNDRPRP ... Satisfied
RRIRDRPPRLPRPRPRPAEWPRP ... Satisfied
RRIRPRPPRLPRPRPRPVDRPRP ... Satisfied
RRIRMRPPRLPRPRPRPMISPRP ... Satisfied

Then there is this sequence:
Check if shrunken log2 fold change >= -0.3 (inclusive). Item: "RRIRFRPPRLPRPRPRPYSQPRP"
Not satisfied

###

Listing of recorded shrunken log2 fold change by entry.
system: Escherichia coli TOP10; test: shrunken log2 fold change of peptide-encoding DNA abundance (4.5 h post-induction vs induction); higher = less antimicrobial activity (less host growth inhibition); conditions: time post-induction: 4.5 h; library: site-saturation at positions 5, 18, 19, 20
API note: the answer field is a bare number with no unit suffix.

RRIRHRPPRLPRPRPRPFLPPRP ... -0.671

Give shrunken log2 fold change for "RRIRVRPPRLPRPRPRPKCMPRP" tested on Escherichia coli TOP10.
0.0847

Tell me shrunken log2 fold change of "RRIRGRPPRLPRPRPRPPKDPRP" when tested on Escherichia coli TOP10.
0.799

Provide shrunken log2 fold change, tested on Escherichia coli TOP10, for "RRIRQRPPRLPRPRPRPADMPRP" .
-0.0927

Specify the recorded shrunken log2 fold change for "RRIRWRPPRLPRPRPRPGCVPRP" , system: Escherichia coli TOP10.
0.607

Find shrunken log2 fold change for "RRIRMRPPRLPRPRPRPKPGPRP" on Escherichia coli TOP10 and write it down.
1.31

Give reported shrunken log2 fold change for "RRIRIRPPRLPRPRPRPQHVPRP" (Escherichia coli TOP10)
-0.211

Tell me shrunken log2 fold change of "RRIRLRPPRLPRPRPRPARYPRP" when tested on Escherichia coli TOP10.
-0.0839

###

tested on: Escherichia coli TOP10; experiment: shrunken log2 fold change of peptide-encoding DNA abundance (4.5 h post-induction vs induction); higher = less antimicrobial activity (less host growth inhibition); conditions: time post-induction: 4.5 h; library: site-saturation at positions 5, 18, 19, 20
measure_name: shrunken log2 fold change
Just the number.

Field: example entries. Status: answers known.
RRIRVRPPRLPRPRPRPIWQPRP ... -0.114
RRIRQRPPRLPRPRPRPGGAPRP ... 0.485
RRIRGRPPRLPRPRPRPHYDPRP ... -0.0292
RRIRVRPPRLPRPRPRPNYGPRP ... -0.387
RRIRRRPPRLPRPRPRPPFPPRP ... 0.645
RRIRVRPPRLPRPRPRPFVYPRP ... -0.439

# context switch: different sequence, same shrunken log2 fold change
Tell me shrunken log2 fold change reported for "RRIRIRPPRLPRPRPRPQEPPRP"
-0.04

###

test system: Escherichia coli TOP10; test: shrunken log2 fold change of peptide-encoding DNA abundance (4.5 h post-induction vs induction); higher = less antimicrobial activity (less host growth inhibition); details: time post-induction: 4.5 h; library: site-saturation at positions 5, 18, 19, 20
Parameter threshold = -0.003. Response is 1 when shrunken log2 fold change meets or exceeds it, else 0.

RRIRIRPPRLPRPRPRPWMIPRP ... 0
RRIRARPPRLPRPRPRPHHFPRP ... 0
RRIRSRPPRLPRPRPRPEIWPRP ... 1

Quick check: does "RRIRLRPPRLPRPRPRPMIEPRP" have shrunken log2 fold change greater than or equal to -0.003?
1

Check the entry "RRIRLRPPRLPRPRPRPDVDPRP" : does shrunken log2 fold change equal or exceed -0.003?
1

Is it the case that "RRIRNRPPRLPRPRPRPPCWPRP" has shrunken log2 fold change reaching or exceeding -0.003?
1

###

test system: Escherichia coli TOP10; test: shrunken log2 fold change of peptide-encoding DNA abundance (4.5 h post-induction vs induction); higher = less antimicrobial activity (less host growth inhibition); settings: time post-induction: 4.5 h; library: site-saturation at positions 5, 18, 19, 20
measure_name: shrunken log2 fold change
The response must contain the number and no unit.

Known shrunken log2 fold change results, listed for orientation:
RRIRTRPPRLPRPRPRPDAQPRP ... 0.193
RRIRQRPPRLPRPRPRPPCMPRP ... -0.0968
RRIRWRPPRLPRPRPRPIGNPRP ... 0.137
RRIRQRPPRLPRPRPRPMHFPRP ... 0.169
RRIRNRPPRLPRPRPRPGLLPRP ... -0.171

# return recorded shrunken log2 fold change for entry "RRIRWRPPRLPRPRPRPLLMPRP"
0.284

Answer with reported shrunken log2 fold change of "RRIRSRPPRLPRPRPRPHSLPRP"
0.0616

Quickly give me recorded shrunken log2 fold change for "RRIRMRPPRLPRPRPRPKFTPRP"
0.313

Return value of shrunken log2 fold change for input "RRIRIRPPRLPRPRPRPMFIPRP" , no commentary.
-0.454

Identify measured shrunken log2 fold change corresponding to "RRIRKRPPRLPRPRPRPSHEPRP"
-0.218

Read off the recorded shrunken log2 fold change for "RRIRARPPRLPRPRPRPLDLPRP"
0.227

Output shrunken log2 fold change of "RRIRFRPPRLPRPRPRPERRPRP"
0.166

Please look at this sequence and report its shrunken log2 fold change: "RRIRDRPPRLPRPRPRPPKSPRP"
0.555

###

tested on: Escherichia coli TOP10; assay: shrunken log2 fold change of peptide-encoding DNA abundance (4.5 h post-induction vs induction); higher = less antimicrobial activity (less host growth inhibition); details: time post-induction: 4.5 h; library: site-saturation at positions 5, 18, 19, 20
So basically every entry gets a class from its shrunken log2 fold change, ranges being zone 1 (below -0.05), zone 2 (-0.05 to below 0.07), zone 3 (0.07 or more)

RRIRHRPPRLPRPRPRPTSMPRP ... zone 1
RRIRWRPPRLPRPRPRPDYMPRP ... zone 1
RRIRYRPPRLPRPRPRPHKGPRP ... zone 1
RRIRMRPPRLPRPRPRPFHPPRP ... zone 2
RRIRQRPPRLPRPRPRPTHGPRP ... zone 3

Which category does the recorded shrunken log2 fold change put "RRIRTRPPRLPRPRPRPWVMPRP" in?
zone 1

Tag the class for "RRIRTRPPRLPRPRPRPTKKPRP"
zone 3

###

Here the recorded shrunken log2 fold change is given for each entry.
test system: Escherichia coli TOP10; assay: shrunken log2 fold change of peptide-encoding DNA abundance (4.5 h post-induction vs induction); higher = less antimicrobial activity (less host growth inhibition); conditions: time post-induction: 4.5 h; library: site-saturation at positions 5, 18, 19, 20
The answer should be written as a number, with no unit following it.

For orientation, consider the following solved cases.
RRIRARPPRLPRPRPRPWLEPRP ... -0.0344
RRIRYRPPRLPRPRPRPNMGPRP ... -0.00101
RRIRSRPPRLPRPRPRPAEMPRP ... 0.125
RRIRTRPPRLPRPRPRPVPIPRP ... -0.0974
RRIRERPPRLPRPRPRPECWPRP ... 0.447
RRIRHRPPRLPRPRPRPYYVPRP ... -0.0196
RRIRGRPPRLPRPRPRPSSTPRP ... 0.446

Below: the item to evaluate.
Provide Escherichia coli TOP10 shrunken log2 fold change reading for "RRIRRRPPRLPRPRPRPTIDPRP" .
-0.0234

###

Measured shrunken log2 fold change, listed per entry.
system: Escherichia coli TOP10; assay: shrunken log2 fold change of peptide-encoding DNA abundance (4.5 h post-induction vs induction); higher = less antimicrobial activity (less host growth inhibition); conditions: time post-induction: 4.5 h; library: site-saturation at positions 5, 18, 19, 20;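 also: peptides expressed intracellularly from a pBAD plasmid library in pooled LB shake-flask culture, induced with 0.3% L-arabinose, DNA abundance read by NGS, three biological replicates, DESeq2 with apeglm shrinkage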

Examples from the recorded data:
RRIRPRPPRLPRPRPRPFSWPRP ... -0.0698
RRIRRRPPRLPRPRPRPYNKPRP ... -0.664
RRIRQRPPRLPRPRPRPCELPRP ... 0.0039
RRIRPRPPRLPRPRPRPLPFPRP ... -0.75
RRIRERPPRLPRPRPRPCLKPRP ... 0.0135

Specify reported shrunken log2 fold change for the sequence shown: "RRIRIRPPRLPRPRPRPLSIPRP"
-0.493

Provide only the value of recorded shrunken log2 fold change for "RRIRLRPPRLPRPRPRPSCNPRP"
-0.661

Kindly indicate its recorded shrunken log2 fold change. Item: "RRIRIRPPRLPRPRPRPFYTPRP"
-0.324

Identify measured shrunken log2 fold change associated with "RRIRHRPPRLPRPRPRPTCGPRP"
0.0685

Give shrunken log2 fold change for the following sequence: "RRIRKRPPRLPRPRPRPVNMPRP"
0.113
